Just for reference, the COVID Moonshot data (paper PMC7615835) is where these values come from.

reportedMetric: IC50

Query: Fill in IC50 for COc1ccc2c(NC(=O)Cc3cccc(Cl)c3)[nH]nc2c1 tested with SARS-CoV-2 Main Protease (SARS-CoV-2).
Result: > 99.5 µM

Query: Please report IC50 with SARS-CoV-2 Main Protease (SARS-CoV-2) for item Cc1cn2nnc(C(=O)N(c3ccc(C(C)(C)C)cc3)C(C(=O)NCCc3cccc(F)c3)c3cccnc3)c2c(=O)[nH]1 (stereo not drawn) .
Result: > 99.5 µM

Query: Give IC50; test system SARS-CoV-2 Main Protease (SARS-CoV-2); compound Cn1c(C(=O)N(c2ccc(C(C)(C)C)cc2)C(C(=O)NCCc2cccc(F)c2)c2cccnc2)c[nH]c1=O (stereo not drawn)
Result: > 99.5 µM

---

molecular target: SARS-CoV-2 Main Protease (SARS-CoV-2) (UniProt P0DTD1)
Label scheme, based on IC50: low bracket = under 2000 nM, middle bracket = from 2000 nM up to 4000 nM, high bracket = 4000 nM and over

Query: Pick a category. Item: CC(C)(C)c1ccc(N(C(=O)c2cocn2)C(C(=O)NCCc2cccc(F)c2)c2cc(=O)[nH]c3ccccc23)cc1 (configuration not stated)
Result: low bracket

Query: Field: class (IC50) — entry: COC(=O)CNC(=O)C(c1cccnc1)N(C(=O)c1cocn1)c1ccc(C(C)(C)C)cc1 (configuration not stated)
Result: high bracket

Query: // bin(item) where item = CC(CNc1ccc2nnnn2n1)c1nc2ccccc2s1 (configuration not stated)
Result: high bracket

Query: # classify by IC50 band: NCc1cn(CC(=O)N(Cc2ccsc2)c2ccc(-n3cnnc3)cc2)nn1
Result: high bracket

Query: Categorize the following entry: O=C(Cc1cc(Cl)cc(Nc2ccc(F)nc2Br)c1)Nc1cncc2ccccc12
Result: low bracket

Query: Exam item: assign O=C(Cc1cc(Cl)cc(Nc2cccc(-c3ccccc3)c2)c1)Nc1cncc2ccccc12 to the correct category.
Result: high bracket

Query: Which class is correct for the following molecule? N#Cc1ccc(C(=O)N2C[C@@H](F)C[C@H]2CNC(=O)C2CCCC2O)[nH]1 (stereo in doubt)
Result: high bracket

Query: Class? Entry: CNC(=O)CN1CC(C(=O)Nc2cncc3ccc(S(C)(=O)=O)cc23)c2cc(Cl)ccc2C1=O (configuration not stated)
Result: low bracket

Query: Class (by measured IC50) for C=CC(=O)N(c1ccc(C(C)(C)C)cc1)C(C(=O)NCCc1cccc(F)c1)c1cncc(C#N)c1 (configuration not stated)
Result: high bracket

Query: Which IC50 category applies to CC(C)(C)c1ccc(N(C(=O)CCC#N)C(C(=O)NCCc2cccc(F)c2)c2cccnc2)cc1 (configuration not stated) here?
Result: middle bracket

Query: State the band of O=C(Cc1cc(Cl)cc(N2CCC(Cc3ccccc3)CC2)c1)Nc1cncc2ccccc12
Result: middle bracket

Query: Textbook exercise: identify the category of the molecule given here, CC(O)Cc1c(C(=O)N(c2ccc(C(C)(C)C)cc2)C(C(=O)NCCc2cccc(F)c2)c2cccnc2)[nH][nH]c1=O (configuration not stated) , according to its measured value.
Result: high bracket

Query: Which of the defined bands does the recorded IC50 of CNC(=O)CN1Cc2ccc(Cl)cc2[C@@]2(CCN(c3cncc4c3CCCC4)C2=O)C1 (stereo in doubt) sit within?
Result: low bracket

Query: Please let me know in which category the item O=C(NCCc1cccc(F)c1)C(c1cccnc1)N(C(=O)c1cocn1)C1COC2(CCCC2)C1 (configuration not stated) belongs.
Result: high bracket

Query: Record Cn1cncc1NC(=O)Cc1cccc(Cl)c1 — which class?
Result: high bracket

Query: Class (by measured IC50) for COc1ccc(Nc2cc(Cl)cc(CC(=O)Nc3cncc4ccccc34)c2)cc1C(F)(F)F
Result: low bracket

Query: Hey, which category is O=C(c1cc(=O)[nH]c2ccccc12)N1CCN(c2cccc(Cl)c2)CC1 in, do you know?
Result: middle bracket

Query: Class for O=C(Nc1cccc(F)c1)[C@@H](c1ccccc1)N1Cc2ccccc2C1=O (stereo in doubt) ?
Result: high bracket

Query: Please indicate the class for O=C(Cc1ccncc1Cl)Nc1cncc2ccccc12 based on its IC50.
Result: high bracket

Query: Note: place this molecule into its band. Item: O=C1N(c2cncc3ccccc23)CCC12CN(Cc1nncs1)Cc1ccc(Cl)cc12 (configuration not stated)
Result: low bracket

Query: Please report the category associated with CC(NC(=O)c1nccc2cccnc12)c1ccc2[nH]c(=O)oc2c1 (configuration not stated) , nothing else.
Result: high bracket

Query: Could you place O=C(Cc1cc(Cl)cc(-n2c(C3CCNCC3)nc3ccccc32)c1)Nc1cncc2ccccc12 in its proper category? Many thanks.
Result: middle bracket

Query: Sort into band: Cn1ncc2cc(N(C(=O)c3cocn3)C(C(=O)NCCc3cccc(F)c3)c3cccnc3)ccc21 (configuration not stated)
Result: high bracket

Query: Which class does O=C(Nc1cncc2cc(Cl)ccc12)C1CCS(=O)(=O)c2ccc(Cl)cc21 (configuration not stated) fall in?
Result: low bracket

Query: Entry C=CC(=O)N(c1cc(C(C)(C)C)on1)C(C(=O)Nc1cccc(CC)c1)c1cccnc1 (configuration not stated) belongs to which category?
Result: high bracket

Query: Assign a category based on measured IC50 for CCOc1ccccc1CNc1cc(Cl)cc(CC(=O)Nc2cncc3ccccc23)c1 and give only the class name.
Result: middle bracket

Query: Given CCOC(=O)c1nc(S(C)(=O)=O)ncc1Cl , name the class its IC50 places it in.
Result: low bracket

Query: Exercise: read the entry CC(C)(C)OC(=O)[C@H]1CCCN1c1cc(Cl)cc(CC(=O)Nc2cncc3ccccc23)c1 (stereo in doubt) and state which class it falls under.
Result: middle bracket

Query: Category of O=C(Cc1cccc(Cl)c1)Nc1cncc2ccc(OCCN3CCCC3)cc12 :
Result: low bracket

Query: Note: place this molecule into its band. Item: CNC(=O)Nc1ccc(N(Cc2ccsc2)C(=O)Cn2nnc3ccccc32)cc1
Result: low bracket

---

Notes on IC50 obtained with SARS-CoV-2 Main Protease (SARS-CoV-2) (UniProt P0DTD1).

Query: Please indicate recorded IC50 of CCS(=O)(=O)c1cc(Cl)cc(CNS(=O)(=O)c2cccs2)c1 measured with SARS-CoV-2 Main Protease (SARS-CoV-2) (UniProt P0DTD1).
Result: > 99.5 µM

Query: Provide IC50, system SARS-CoV-2 Main Protease (SARS-CoV-2) (UniProt P0DTD1), entry COCCNC(=O)[C@@H](c1ccccc1)N1Cc2ccccc2C1=O (stereo in doubt)
Result: > 99.5 µM

Query: Please respond with reported IC50 (system SARS-CoV-2 Main Protease (SARS-CoV-2) (UniProt P0DTD1)) for CC(C)(C)c1ccc(N(C(=O)c2ocnc2C(F)(F)F)C(C(=O)NCCc2cccc(F)c2)c2cccnc2)cc1 (stereo not drawn) .
Result: > 99.5 µM

Query: Report its IC50 with SARS-CoV-2 Main Protease (SARS-CoV-2) (UniProt P0DTD1) as the test system: Cc1cc(O)cc(C)c1C[C@H](NC(=O)[C@H](N)CCCNC(=N)N)C(=O)N[C@@H](CCCCN)C(=O)N[C@@H](Cc1ccccc1)C(N)=O (stereo in doubt)
Result: > 99 µM

Query: Report the value of IC50 obtained on SARS-CoV-2 Main Protease (SARS-CoV-2) (UniProt P0DTD1) for CC1(C(=O)Nc2cncc3c2CCCC3)CNS(=O)(=O)c2ccc(Cl)cc21 (stereo not drawn) .
Result: > 99.5 µM

Query: Tell me IC50 of O=C(NCCc1cccc(F)c1)C(c1cccnc1)N(C(=O)c1cnc[nH]1)C1CCN(c2ccccc2)C1 (stereo not drawn) when tested on SARS-CoV-2 Main Protease (SARS-CoV-2) (UniProt P0DTD1).
Result: > 99 µM

Query: Answer briefly: IC50 recorded on SARS-CoV-2 Main Protease (SARS-CoV-2) (UniProt P0DTD1) for C=CC(=O)NCc1ccccc1S(=O)(=O)NC(C)(C)C
Result: > 99.5 µM

Query: Look up SARS-CoV-2 Main Protease (SARS-CoV-2) (UniProt P0DTD1) data: IC50 of O=C(NCCc1cccc(F)c1)C(c1cccnc1)N(Cc1cccnc1)C(=O)c1cnc[nH]1 (stereo not drawn) , then report it.
Result: > 99 µM

Query: Tell me IC50 of O=C(Cc1cccc(Cl)c1)Nc1n[nH]c2ccncc12 when tested on SARS-CoV-2 Main Protease (SARS-CoV-2) (UniProt P0DTD1).
Result: > 99.5 µM

Query: Please indicate recorded IC50 of O=C(Nc1ccccc1)[C@@H](c1ccccc1)N1Cc2ccccc2C1=O (stereo in doubt) measured with SARS-CoV-2 Main Protease (SARS-CoV-2) (UniProt P0DTD1).
Result: > 99.5 µM

Query: Fill in: IC50 on SARS-CoV-2 Main Protease (SARS-CoV-2) (UniProt P0DTD1), entry Cc1ccncc1OCCNC(=O)C(C)(C)c1cccc(Cl)c1
Result: > 99.5 µM

Query: Fill in IC50 for COCc1nc(C)c(C(=O)N(c2ccc(C(C)(C)C)cc2)C(C(=O)NCCc2cccc(F)c2)c2cccnc2)s1 (stereo not drawn) tested with SARS-CoV-2 Main Protease (SARS-CoV-2) (UniProt P0DTD1).
Result: > 99.5 µM

Query: Provide the reported IC50 (system: SARS-CoV-2 Main Protease (SARS-CoV-2) (UniProt P0DTD1)) for COc1ccc2c(N)nn(C(=O)Cc3cccc(Cl)c3)c2c1
Result: > 99.5 µM
